- System: P-gp
- MEASUREMENT_PROTOCOL: MDCK bidirectional permeability assay
- CONDITION_INFO: dog
ASSAY_ENDPOINT: Papp B→A at 10 µM (×10⁻⁶ cm/s)

1) COc1cc2c(c(OC)c1OC)-c1ccc(OC)c(=O)cc1[C@@H](NC(C)=O)CC2 [Colchicine] :: 2.31

----------
- MEASUREMENT_PROTOCOL: Caco-2 bidirectional permeability assay
- CONDITION_INFO: human, Caco-2
ASSAY_ENDPOINT: efflux ratio at 10 µM

1) COc1cc2c(c(OC)c1OC)-c1ccc(OC)c(=O)cc1[C@@H](NC(C)=O)CC2 :: 27.4
2) CNC(=C[N+](=O)[O-])NCCSCc1ccc(CN(C)C)o1 :: 3.34
